# Test system: U-2932
# protocol notes: growth inhibition by drug plus 177Lu-lilotomab satetraxetan (1 - RLU/untreated control) (fraction); higher = stronger inhibition
# condition details: 1000 nM; time (day): 5; 177Lu-lilotomab satetraxetan 1 ug/ml
Where a name gives a salt, the structure may show the parent alone.
Would you mind labelling by growth inhibition by drug plus 177Lu-lilotomab satetraxetan? At or over 0.3 is MET, under is NOT MET.

C=CCc1cccc(/C=N/NC(=O)CN2CCN(Cc3ccccc3)CC2)c1O ... NOT MET

Data request: Quick check: does COc1ccc(S(=O)(=O)Nc2cccnc2Nc2ccc(O)cc2)cc1 have growth inhibition by drug plus 177Lu-lilotomab satetraxetan greater than or equal to 0.3?
Data returned: MET

Data request: Is reported growth inhibition by drug plus 177Lu-lilotomab satetraxetan greater than or equal to 0.3 here: CC(C)C(=O)Nc1ccc([N+](=O)[O-])c(C(F)(F)F)c1 [Flutamide (Eulexin)]
Data returned: NOT MET

Data request: Does growth inhibition by drug plus 177Lu-lilotomab satetraxetan meet or surpass 0.3 for COc1cc(Nc2ncc3c(n2)-c2ccc(Cl)cc2C(c2c(F)cccc2OC)=NC3)ccc1C(=O)O ?
Data returned: MET

Data request: Evaluate CCc1ccc(CCOc2ccc(CC3SC(=O)NC3=O)cc2)nc1 (stereo not drawn) : growth inhibition by drug plus 177Lu-lilotomab satetraxetan at minimum 0.3?
Data returned: NOT MET

Data request: Please check the record Nc1ccc(C(=O)Nc2cccc(-c3nc(N4CCOCC4)c4oc5ncccc5c4n3)c2)cn1 and state if its growth inhibition by drug plus 177Lu-lilotomab satetraxetan is at or above 0.3.
Data returned: NOT MET

Data request: Test whether the compound Cc1[nH]c(/C=C2\C(=O)Nc3ccc(S(=O)(=O)N(C)c4cccc(Cl)c4)cc32)c(C)c1C(=O)N1CCN(C)CC1 records growth inhibition by drug plus 177Lu-lilotomab satetraxetan of 0.3 or higher.
Data returned: NOT MET

Data request: Threshold query (growth inhibition by drug plus 177Lu-lilotomab satetraxetan >= 0.3) on COC1=CC(c2cc3ccccc3[nH]2)=N/C1=C\c1[nH]c(C)cc1C [Obatoclax mesylate (GX15-070)]
Data returned: NOT MET

====

# Tested on: U-2932
# protocol notes: growth inhibition by drug alone (1 - RLU/untreated control) (fraction); higher = stronger inhibition
# condition details: 1000 nM; time (day): 3; 177Lu-lilotomab satetraxetan 0 ug/ml
growth inhibition by drug alone overview
Enter a number only.

# example entries with known answers
COc1cc2ncnc(Nc3ccc(F)c(Cl)c3)c2cc1NC(=O)/C=C/CN1CCCCC1 ... -0.222
CC(=O)O[C@]1(C(C)=O)CC[C@H]2[C@@H]3C=C(C)C4=CC(=O)CC[C@]4(C)[C@H]3CC[C@@]21C [Megestrol Acetate] ... 0.0742
CS(=O)(=O)N1CCN(Cc2cc3nc(-c4cccc5[nH]ncc45)nc(N4CCOCC4)c3s2)CC1 ... 0.69

Data request: Dear colleague, I am looking for the recorded growth inhibition by drug alone of the following compound: O=C(O)C1(C(=O)O)CCC1.[NH2-].[NH2-].[Pt+2]
Data returned: -0.0124

Data request: Consider the compound O=C(/C=C/c1cccc(S(=O)(=O)Nc2ccccc2)c1)NO and give its measured growth inhibition by drug alone.
Data returned: 0.961

====

# Tested on: U-2932
# protocol notes: growth inhibition by drug plus 177Lu-lilotomab satetraxetan (1 - RLU/untreated control) (fraction); higher = stronger inhibition
# condition details: 10 nM; time (day): 6; 177Lu-lilotomab satetraxetan 1 ug/ml
Entries and their growth inhibition by drug plus 177Lu-lilotomab satetraxetan values follow.
When you answer, write just the number.

Nc1nccc(-c2ccc3noc(-c4ccc(Cl)cc4)c3c2)n1 ... 0.208
Cc1[nH]c(/C=C2\C(=O)Nc3ccc(S(=O)(=O)N(C)c4cccc(Cl)c4)cc32)c(C)c1C(=O)N1CCN(C)CC1 ... 0.0845
CC(C)Oc1cc(Nc2nc(N[C@@H](C)c3ccc(F)cn3)ncc2Cl)n[nH]1 ... 0.262
NC(=O)c1ccc(I)c([N+](=O)[O-])c1 ... 0.129

Data request: # growth inhibition by drug plus 177Lu-lilotomab satetraxetan lookup, item OCCn1cc(-c2ccc3c(c2)CC/C3=N\O)c(-c2ccncc2)n1
Data returned: 0.0788

Values were extracted from the supplement of paper PMC6897291.
